# CONDITION SET: in n-butanol, 283.15 K

{"columns": ["MOLECULE", "solubility (mole fraction)"],
 "data": [
  ["Cc1c(OCC(F)(F)F)ccnc1CS(=O)c1nc2ccccc2[nH]1 (stereo unspecified)", 0.00701]
]}

---

# CONDITION SET: in ethanol, 313.15 K

{"columns": ["COMPOUND", "solubility (mole fraction)"],
 "data": [
  ["Cc1c(OCC(F)(F)F)ccnc1CS(=O)c1nc2ccccc2[nH]1 (stereo unspecified)", 0.0402]
]}

---

# CONDITION SET: in acetone, 288.15 K
QUANTITY KIND: solubility (mole fraction)

{"columns": ["COMPOUND", "QUANTITY KIND", "ENDPOINT VALUE"],
 "data": [
  ["Cc1c(OCC(F)(F)F)ccnc1CS(=O)c1nc2ccccc2[nH]1 (stereo unspecified)", "solubility (mole fraction)", 0.0221]
]}

---

# CONDITION SET: in ethyl acetate, 313.15 K

{"columns": ["MOLECULE", "solubility (mole fraction)"],
 "data": [
  ["Cc1c(OCC(F)(F)F)ccnc1CS(=O)c1nc2ccccc2[nH]1 (stereo unspecified)", 0.0175]
]}

---

# CONDITION SET: in acetone, 293.15 K
QUANTITY KIND: solubility (mole fraction)

{"columns": ["COMPOUND", "ENDPOINT VALUE"],
 "data": [
  ["Cc1c(OCC(F)(F)F)ccnc1CS(=O)c1nc2ccccc2[nH]1 (stereo unspecified)", 0.0256]
]}

---

# CONDITION SET: in methyl acetate, 298.15 K

{"columns": ["COMPOUND", "solubility (mole fraction)"],
 "data": [
  ["Cc1c(OCC(F)(F)F)ccnc1CS(=O)c1nc2ccccc2[nH]1 (stereo unspecified)", 0.0131]
]}

---

# CONDITION SET: in methanol, 308.15 K
QUANTITY KIND: solubility (mole fraction)

{"columns": ["MOLECULE", "ENDPOINT VALUE"],
 "data": [
  ["Cc1c(OCC(F)(F)F)ccnc1CS(=O)c1nc2ccccc2[nH]1 (stereo unspecified)", 0.0803]
]}

---

# CONDITION SET: in methanol, 293.15 K

{"columns": ["MOLECULE", "solubility (mole fraction)"],
 "data": [
  ["Cc1c(OCC(F)(F)F)ccnc1CS(=O)c1nc2ccccc2[nH]1 (stereo unspecified)", 0.0428]
]}

---

# CONDITION SET: in n-butyl acetate, 278.15 K

{"columns": ["COMPOUND", "solubility (mole fraction)"],
 "data": [
  ["Cc1c(OCC(F)(F)F)ccnc1CS(=O)c1nc2ccccc2[nH]1 (stereo unspecified)", 0.00168]
]}

---

# CONDITION SET: in n-propanol, 313.15 K

{"columns": ["COMPOUND", "solubility (mole fraction)"],
 "data": [
  ["Cc1c(OCC(F)(F)F)ccnc1CS(=O)c1nc2ccccc2[nH]1 (stereo unspecified)", 0.028]
]}

---

# CONDITION SET: in isobutanol, 293.15 K

{"columns": ["MOLECULE", "solubility (mole fraction)"],
 "data": [
  ["Cc1c(OCC(F)(F)F)ccnc1CS(=O)c1nc2ccccc2[nH]1 (stereo unspecified)", 0.00803]
]}

---

# CONDITION SET: in acetonitrile, 303.15 K

{"columns": ["MOLECULE", "solubility (mole fraction)"],
 "data": [
  ["Cc1c(OCC(F)(F)F)ccnc1CS(=O)c1nc2ccccc2[nH]1 (stereo unspecified)", 0.01]
]}

---

# CONDITION SET: in n-propanol, 318.15 K

{"columns": ["MOLECULE", "solubility (mole fraction)"],
 "data": [
  ["Cc1c(OCC(F)(F)F)ccnc1CS(=O)c1nc2ccccc2[nH]1 (stereo unspecified)", 0.0335]
]}

---

# CONDITION SET: in ethyl acetate, 308.15 K
QUANTITY KIND: solubility (mole fraction)

{"columns": ["COMPOUND", "ENDPOINT VALUE"],
 "data": [
  ["Cc1c(OCC(F)(F)F)ccnc1CS(=O)c1nc2ccccc2[nH]1 (stereo unspecified)", 0.0145]
]}

---

# CONDITION SET: in acetonitrile, 293.15 K

{"columns": ["MOLECULE", "solubility (mole fraction)"],
 "data": [
  ["Cc1c(OCC(F)(F)F)ccnc1CS(=O)c1nc2ccccc2[nH]1 (stereo unspecified)", 0.00642]
]}

---

# CONDITION SET: in methanol, 288.15 K

{"columns": ["COMPOUND", "solubility (mole fraction)"],
 "data": [
  ["Cc1c(OCC(F)(F)F)ccnc1CS(=O)c1nc2ccccc2[nH]1 (stereo unspecified)", 0.0331]
]}

---

# CONDITION SET: in methanol, 283.15 K
QUANTITY KIND: solubility (mole fraction)

{"columns": ["MOLECULE", "ENDPOINT VALUE"],
 "data": [
  ["Cc1c(OCC(F)(F)F)ccnc1CS(=O)c1nc2ccccc2[nH]1 (stereo unspecified)", 0.0271]
]}

---

# CONDITION SET: in isopropanol, 303.15 K

{"columns": ["COMPOUND", "solubility (mole fraction)"],
 "data": [
  ["Cc1c(OCC(F)(F)F)ccnc1CS(=O)c1nc2ccccc2[nH]1 (stereo unspecified)", 0.0109]
]}

---

# CONDITION SET: in methanol, 313.15 K

{"columns": ["MOLECULE", "solubility (mole fraction)"],
 "data": [
  ["Cc1c(OCC(F)(F)F)ccnc1CS(=O)c1nc2ccccc2[nH]1 (stereo unspecified)", 0.101]
]}

---

# CONDITION SET: in isobutanol, 288.15 K

{"columns": ["COMPOUND", "solubility (mole fraction)"],
 "data": [
  ["Cc1c(OCC(F)(F)F)ccnc1CS(=O)c1nc2ccccc2[nH]1 (stereo unspecified)", 0.00657]
]}

---

# CONDITION SET: in acetonitrile, 283.15 K

{"columns": ["COMPOUND", "solubility (mole fraction)"],
 "data": [
  ["Cc1c(OCC(F)(F)F)ccnc1CS(=O)c1nc2ccccc2[nH]1 (stereo unspecified)", 0.00406]
]}

---

# CONDITION SET: in methyl acetate, 278.15 K

{"columns": ["MOLECULE", "solubility (mole fraction)"],
 "data": [
  ["Cc1c(OCC(F)(F)F)ccnc1CS(=O)c1nc2ccccc2[nH]1 (stereo unspecified)", 0.00633]
]}

---

# CONDITION SET: in n-butanol, 288.15 K

{"columns": ["MOLECULE", "solubility (mole fraction)"],
 "data": [
  ["Cc1c(OCC(F)(F)F)ccnc1CS(=O)c1nc2ccccc2[nH]1 (stereo unspecified)", 0.00832]
]}

---

# CONDITION SET: in methyl acetate, 308.15 K
QUANTITY KIND: solubility (mole fraction)

{"columns": ["COMPOUND", "ENDPOINT VALUE"],
 "data": [
  ["Cc1c(OCC(F)(F)F)ccnc1CS(=O)c1nc2ccccc2[nH]1 (stereo unspecified)", 0.02]
]}

---

# CONDITION SET: in n-propyl acetate, 303.15 K

{"columns": ["COMPOUND", "solubility (mole fraction)"],
 "data": [
  ["Cc1c(OCC(F)(F)F)ccnc1CS(=O)c1nc2ccccc2[nH]1 (stereo unspecified)", 0.00654]
]}

---

# CONDITION SET: in isobutanol, 308.15 K

{"columns": ["COMPOUND", "solubility (mole fraction)"],
 "data": [
  ["Cc1c(OCC(F)(F)F)ccnc1CS(=O)c1nc2ccccc2[nH]1 (stereo unspecified)", 0.0148]
]}

---

# CONDITION SET: in n-butanol, 308.15 K
QUANTITY KIND: solubility (mole fraction)

{"columns": ["MOLECULE", "ENDPOINT VALUE"],
 "data": [
  ["Cc1c(OCC(F)(F)F)ccnc1CS(=O)c1nc2ccccc2[nH]1 (stereo unspecified)", 0.0196]
]}

---

# CONDITION SET: in n-butyl acetate, 308.15 K

{"columns": ["COMPOUND", "solubility (mole fraction)"],
 "data": [
  ["Cc1c(OCC(F)(F)F)ccnc1CS(=O)c1nc2ccccc2[nH]1 (stereo unspecified)", 0.0063]
]}

---

# CONDITION SET: in isobutanol, 298.15 K

{"columns": ["MOLECULE", "solubility (mole fraction)"],
 "data": [
  ["Cc1c(OCC(F)(F)F)ccnc1CS(=O)c1nc2ccccc2[nH]1 (stereo unspecified)", 0.0098]
]}

---

# CONDITION SET: in n-butyl acetate, 293.15 K

{"columns": ["COMPOUND", "solubility (mole fraction)"],
 "data": [
  ["Cc1c(OCC(F)(F)F)ccnc1CS(=O)c1nc2ccccc2[nH]1 (stereo unspecified)", 0.00329]
]}
